Entries and their MIC values follow.
test system: Escherichia coli; experiment: Antibacterial activity against Escherichia coli UB1005 incubated for 18 to 24 hrs by broth microdilution method; format: functional
Where a SMILES comes first, the peptide text is derived from it.
Write it as a number; the unit µM goes unstated.

The cases that follow already have their MIC on record.
[[record]]
compound = "CN(C)c1ccc(O)c2c1C[C@H]1C[C@H]3[C@H](N(C)C)C(O)=C(C(N)=O)C(=O)[C@@]3(O)C(O)=C1C2=O"
assay_endpoint = "MIC"
unit_name = "µM"
readout_value = 4

[[record]]
compound = "CCn1cc(C(=O)O)c(=O)c2cc(F)c(N3CCNCC3)cc21"
assay_endpoint = "MIC"
unit_name = "µM"
readout_value = 4

[[record]]
compound = "N=C(N)NCCC[C@H](NC(=O)[C@H](Cc1ccccc1)NC(=O)[C@H](CCCNC(=N)N)NC(=O)[C@H](Cc1c[nH]c2ccccc12)NC(=O)[C@H](CCCNC(=N)N)NC(=O)[C@H](Cc1ccccc1)NC(=O)[C@H](CCCNC(=N)N)NC(=O)[C@H](Cc1c[nH]c2ccccc12)NC(=O)[C@H](CCCNC(=N)N)NC(=O)[C@H](Cc1ccccc1)NC(=O)[C@H](CCCNC(=N)N)NC(=O)[C@@H](N)Cc1c[nH]c2ccccc12)C(N)=O (H-WRFRWRFRWRFR-NH2)"
assay_endpoint = "MIC"
unit_name = "µM"
readout_value = 4


Attention now shifts to the item below.
Exercise: Given the compound O=C(O)c1cn(C2CC2)c2cc(N3CCNCC3)c(F)cc2c1=O , what is its reported MIC?
Key: 2

* * *

tested on: Escherichia coli; assay: Antibacterial activity against Escherichia coli UB1005 incubated for 18 to 24 hrs by broth microdilution method; format: functional
Where a SMILES comes first, the peptide text is derived from it.
assay-endpoint: MIC (µM)
The reply should contain only the number, in µM.

[[record]]
molecule = "CN[C@H](CC(C)C)C(=O)N[C@H]1C(=O)N[C@@H](CC(N)=O)C(=O)N[C@H]2C(=O)N[C@H]3C(=O)N[C@H](C(=O)N[C@H](C(=O)O)c4cc(O)cc(O)c4-c4cc3ccc4O)[C@H](O)c3ccc(c(Cl)c3)Oc3cc2cc(c3O[C@@H]2O[C@H](CO)[C@@H](O)[C@H](O)[C@H]2O[C@H]2C[C@](C)(N)[C@H](O)[C@H](C)O2)Oc2ccc(cc2Cl)[C@H]1O [VANCOMYCIN]"
assay_endpoint = "MIC"
readout_value = 128

[[record]]
molecule = "CC(C)C[C@H](NC(=O)[C@H](CCCNC(=N)N)NC(=O)[C@@H](NC(=O)[C@H](CCCNC(=N)N)NC(=O)[C@@H](NC(=O)[C@H](CCCCN)NC(=O)[C@@H](NC(=O)[C@H](CCCNC(=N)N)NC(=O)[C@H](CC(C)C)NC(=O)[C@H](CCCNC(=N)N)NC(=O)[C@@H](N)C(C)C)C(C)C)[C@@H](C)O)C(C)C)C(=O)N[C@@H](CCCCN)C(N)=O (H-VRLRVKTRVRLK-NH2)"
assay_endpoint = "MIC"
readout_value = 4

[[record]]
molecule = "CC(C)[C@H](NC(=O)[C@H](CCCCN)NC(=O)[C@H](Cc1c[nH]c2ccccc12)NC(=O)[C@H](CCCCN)NC(=O)[C@@H](NC(=O)[C@H](CCCCN)NC(=O)[C@H](Cc1c[nH]c2ccccc12)NC(=O)[C@H](CCCCN)NC(=O)[C@@H](NC(=O)[C@H](CCCCN)NC(=O)[C@@H](N)Cc1c[nH]c2ccccc12)C(C)C)C(C)C)C(=O)N[C@@H](CCCCN)C(N)=O (H-WKVKWKVKWKVK-NH2)"
assay_endpoint = "MIC"
readout_value = 2

[[record]]
molecule = "CC(C)(O/N=C(\\C(=O)N[C@@H]1C(=O)N2C(C(=O)[O-])=C(C[n+]3ccccc3)CS[C@H]12)c1csc(N)n1)C(=O)O [CEFTAZIDIME]"
assay_endpoint = "MIC"
readout_value = 0.25

[[record]]
molecule = "CC(C)C[C@H](NC(=O)[C@H](CCCNC(=N)N)NC(=O)[C@H](Cc1c[nH]c2ccccc12)NC(=O)[C@H](CCCNC(=N)N)NC(=O)[C@@H](NC(=O)[C@H](Cc1c[nH]c2ccccc12)NC(=O)[C@H](Cc1c[nH]c2ccccc12)NC(=O)[C@H](CCCNC(=N)N)NC(=O)[C@H](CC(C)C)NC(=O)[C@H](Cc1c[nH]c2ccccc12)NC(=O)[C@@H](N)CCCNC(=N)N)[C@@H](C)O)C(=O)N[C@@H](CCCCN)C(N)=O (H-RWLRWWTRWRLK-NH2)"
assay_endpoint = "MIC"
readout_value = 2


Exercise: Record CC(C)[C@H](NC(=O)[C@H](CCCNC(=N)N)NC(=O)[C@H](Cc1c[nH]c2ccccc12)NC(=O)[C@H](CCCNC(=N)N)NC(=O)[C@@H](NC(=O)[C@H](CCCCN)NC(=O)[C@H](Cc1c[nH]c2ccccc12)NC(=O)[C@H](CCCNC(=N)N)NC(=O)[C@@H](NC(=O)[C@H](CCCNC(=N)N)NC(=O)[C@@H](N)Cc1c[nH]c2ccccc12)C(C)C)[C@@H](C)O)C(=O)N[C@@H](CCCCN)C(N)=O (H-WRVRWKTRWRVK-NH2) : what is its MIC with Escherichia coli?
Key: 2

* * *

tested on: Salmonella typhimurium; experiment: Antibacterial activity against Salmonella enterica serovar typhimurium C77-31 incubated for 18 to 24 hrs by broth microdilution method; type: functional, Salmonella enterica subsp. enterica serovar Typhimurium
Where a SMILES comes first, the peptide text is derived from it.
assay-endpoint: MIC (µM)
I only need the number, in µM, no unit after it.

Reference set, count: 2
[[record]]
molecule = "CC(C)C[C@H](NC(=O)[C@H](CCCNC(=N)N)NC(=O)[C@@H](NC(=O)[C@H](CCCNC(=N)N)NC(=O)[C@@H](NC(=O)[C@H](CCCCN)NC(=O)[C@@H](NC(=O)[C@H](CCCNC(=N)N)NC(=O)[C@H](CC(C)C)NC(=O)[C@H](CCCNC(=N)N)NC(=O)[C@@H](N)C(C)C)C(C)C)[C@@H](C)O)C(C)C)C(=O)N[C@@H](CCCCN)C(N)=O (H-VRLRVKTRVRLK-NH2)"
readout_value = 16

[[record]]
molecule = "C[C@@H](O)[C@H](NC(=O)[C@H](CCCCN)NC(=O)[C@H](Cc1c[nH]c2ccccc12)NC(=O)[C@H](CCCNC(=N)N)NC(=O)[C@H](Cc1ccccc1)NC(=O)[C@H](CCCNC(=N)N)NC(=O)[C@@H](N)Cc1c[nH]c2ccccc12)C(=O)N[C@@H](CCCNC(=N)N)C(=O)N[C@@H](Cc1c[nH]c2ccccc12)C(=O)N[C@@H](CCCNC(=N)N)C(=O)N[C@@H](Cc1ccccc1)C(=O)N[C@@H](CCCCN)C(N)=O (H-WRFRWKTRWRFK-NH2)"
readout_value = 2


Now for the molecule whose MIC we want.
Exercise: Give the measured MIC of O=C(O)c1cn(C2CC2)c2cc(N3CCNCC3)c(F)cc2c1=O [CIPROFLOXACIN] .
Key: 4

* * *

system: Acinetobacter baumannii; assay: Antibacterial activity against Acinetobacter baumannii AB1901 clinical isolate incubated for 18 to 24 hrs by broth microdilution method; format: functional
Where a SMILES comes first, the peptide text is derived from it.
assay-endpoint: MIC (µM)
Provide only the numeric value, understood in µM.

Check out these entries, answers already filled in.
[[record]]
molecule = "CO[C@H]1/C=C/O[C@@]2(C)Oc3c(C)c(O)c4c(O)c(c(/C=N/N5CCN(C)CC5)c(O)c4c3C2=O)NC(=O)/C(C)=C\\C=C\\[C@H](C)[C@H](O)[C@@H](C)[C@@H](O)[C@@H](C)[C@H](OC(C)=O)[C@@H]1C"
assay_endpoint = "MIC"
readout_value = 1

[[record]]
molecule = "CC[C@H](C)[C@H](NC(=O)[C@H](CCCNC(=N)N)NC(=O)[C@H](Cc1c[nH]c2ccccc12)NC(=O)[C@H](CCCNC(=N)N)NC(=O)[C@@H](NC(=O)[C@H](CCCCN)NC(=O)[C@H](Cc1c[nH]c2ccccc12)NC(=O)[C@H](CCCNC(=N)N)NC(=O)[C@@H](NC(=O)[C@H](CCCNC(=N)N)NC(=O)[C@@H](N)Cc1c[nH]c2ccccc12)[C@@H](C)CC)[C@@H](C)O)C(=O)N[C@@H](CCCCN)C(N)=O (H-WRIRWKTRWRIK-NH2)"
assay_endpoint = "MIC"
readout_value = 2

[[record]]
molecule = "CC(C)C[C@H](NC(=O)[C@H](CCCNC(=N)N)NC(=O)[C@H](Cc1c[nH]c2ccccc12)NC(=O)[C@H](CCCNC(=N)N)NC(=O)[C@@H](NC(=O)[C@H](CCCCN)NC(=O)[C@H](Cc1c[nH]c2ccccc12)NC(=O)[C@H](CCCNC(=N)N)NC(=O)[C@H](CC(C)C)NC(=O)[C@H](CCCNC(=N)N)NC(=O)[C@@H](N)Cc1c[nH]c2ccccc12)[C@@H](C)O)C(=O)N[C@@H](CCCCN)C(N)=O (H-WRLRWKTRWRLK-NH2)"
assay_endpoint = "MIC"
readout_value = 4

[[record]]
molecule = "N=C(N)NCCC[C@H](NC(=O)[C@H](Cc1ccccc1)NC(=O)[C@H](CCCNC(=N)N)NC(=O)[C@H](Cc1c[nH]c2ccccc12)NC(=O)[C@H](CCCNC(=N)N)NC(=O)[C@H](Cc1ccccc1)NC(=O)[C@H](CCCNC(=N)N)NC(=O)[C@H](Cc1c[nH]c2ccccc12)NC(=O)[C@H](CCCNC(=N)N)NC(=O)[C@H](Cc1ccccc1)NC(=O)[C@H](CCCNC(=N)N)NC(=O)[C@@H](N)Cc1c[nH]c2ccccc12)C(N)=O (H-WRFRWRFRWRFR-NH2)"
assay_endpoint = "MIC"
readout_value = 2

[[record]]
molecule = "CC(C)C[C@H](NC(=O)[C@H](CCCNC(=N)N)NC(=O)[C@H](Cc1c[nH]c2ccccc12)NC(=O)[C@H](CCCNC(=N)N)NC(=O)[C@H](CC(C)C)NC(=O)[C@H](CCCNC(=N)N)NC(=O)[C@H](Cc1c[nH]c2ccccc12)NC(=O)[C@H](CCCNC(=N)N)NC(=O)[C@H](CC(C)C)NC(=O)[C@H](CCCNC(=N)N)NC(=O)[C@@H](N)Cc1c[nH]c2ccccc12)C(=O)N[C@@H](CCCNC(=N)N)C(N)=O (H-WRLRWRLRWRLR-NH2)"
assay_endpoint = "MIC"
readout_value = 2


Query molecule follows.
Exercise: Endpoint output: MIC of CC1COc2c(N3CCN(C)CC3)c(F)cc3c(=O)c(C(=O)O)cn1c23 (configuration not stated) . Value?
Key: 32
